Assay: MDR1 LLC-PK1 and BCRP MDCKII permeability assay: permeability coefficient (Papp)
Assay type: in vitro ADME
Counter-ions that a name gives are not always drawn.
Each entry below carries its reported Papp at 2 h, 1 µM.
PROPERTY MEASURED: Papp at 2 h, 1 µM (×10⁻⁶ cm/s)

INSERT INTO results (molecule, property_measured, recorded_value) VALUES
  ('Cn1cnc2ccc(Nc3c(F)c(F)cc(NS(=O)(=O)N4CCCC4)c3Cl)c(F)c2c1=O [Example 40, trifluoroacetate]', 'Papp at 2 h, 1 µM', 29),
  ('Cn1cnc2ccc(Oc3c(F)ccc(NS(=O)(=O)N4C[C@@H](F)[C@@H](F)C4)c3Cl)c(Cl)c2c1=O [Example 59]', 'Papp at 2 h, 1 µM', 31),
  ('Cc1c(Nc2c(F)ccc(NS(=O)(=O)N3CCC3)c2Cl)ccc2ncn(C)c(=O)c12 [Example 124, trifluoroacetate]', 'Papp at 2 h, 1 µM', 43),
  ('Cn1cnc2ccc(Nc3c(F)ccc(NS(=O)(=O)N4C[C@@H](F)[C@@H](F)C4)c3Cl)c(Cl)c2c1=O [Example 22]', 'Papp at 2 h, 1 µM', 34),
  ('Cn1cnc2ccc(Nc3c(F)ccc(NS(=O)(=O)N4CC[C@@H](F)C4)c3Cl)c(Br)c2c1=O [Example 24, trifluoroacetate]', 'Papp at 2 h, 1 µM', 27),
  ('Cn1cnc2ccc(Nc3c(F)ccc(NS(=O)(=O)N4CC(F)(F)C4)c3Cl)c(Cl)c2c1=O [Example 135]', 'Papp at 2 h, 1 µM', 29),
  ('CCN(C)S(=O)(=O)Nc1ccc(F)c(Nc2ccc3ncn(C)c(=O)c3c2F)c1Cl [Example 4]', 'Papp at 2 h, 1 µM', 27),
  ('Cn1cnc2ccc(Nc3c(F)c(F)cc(NS(=O)(=O)N4CCCC4)c3F)c(Cl)c2c1=O [Example 43, trifluoroacetate]', 'Papp at 2 h, 1 µM', 32),
  ('CCN(C)S(=O)(=O)Nc1ccc(F)c(Oc2ccc3ncn(C)c(=O)c3c2Cl)c1Cl [Example 109]', 'Papp at 2 h, 1 µM', 34),
  ('COCC1CN(S(=O)(=O)Nc2ccc(F)c(Oc3ccc4ncn(C)c(=O)c4c3F)c2Cl)C1 [Example 121]', 'Papp at 2 h, 1 µM', 35),
  ('Cn1cnc2ccc(Nc3c(F)ccc(NS(=O)(=O)N4CC5CC5C4)c3Cl)c(F)c2c1=O (stereo not drawn) [Example 30, trifluoroacetate]', 'Papp at 2 h, 1 µM', 40),
  ('CN(C)S(=O)(=O)Nc1ccc(F)c(Nc2ccc3ncn(C)c(=O)c3c2F)c1Cl [Example 83]', 'Papp at 2 h, 1 µM', 32),
  ('Cn1cnc2ccc(Oc3c(F)ccc(NS(=O)(=O)N4CCCC4)c3Cl)c(F)c2c1=O [Example 44, trifluoroacetate]', 'Papp at 2 h, 1 µM', 34),
  ('Cc1c(Oc2c(F)ccc(NS(=O)(=O)N3CC4CC4C3)c2Cl)ccc2ncn(C)c(=O)c12 (stereo not drawn) [Example 91]', 'Papp at 2 h, 1 µM', 17),
  ('CCOC1CN(S(=O)(=O)Nc2ccc(F)c(Nc3ccc4ncn(C)c(=O)c4c3F)c2Cl)C1 [Example 142]', 'Papp at 2 h, 1 µM', 21);

---

System: H1755 cells
Experiment: Cellular phospho-ERK inhibition assay in H1755 cells
Format: cell-based
Details: Homo sapiens, NCI-H1755, 2 hours treatment, read-out: H1755 Cell IC50
Structures can show the parent of a compound that is named as a salt.
PROPERTY MEASURED: IC50 (µM)

INSERT INTO assay_data (compound, property_measured, units_text, recorded_value) VALUES
  ('Cn1cnc2ccc(Nc3c(F)c(F)cc(NS(=O)(=O)N4CCCC4)c3Cl)c(Cl)c2c1=O [Example 31, trifluoroacetate]', 'IC50', 'µM', 0.168),
  ('Cn1cnc2ccc(Oc3c(F)ccc(NS(=O)(=O)N4CCC(F)(F)C4)c3Cl)c(Cl)c2c1=O [Example 61]', 'IC50', 'µM', 0.194),
  ('CC[C@@H]1CCN(S(=O)(=O)Nc2ccc(F)c(Nc3ccc4ncn(C)c(=O)c4c3F)c2Cl)C1 [Example 62, trifluoroacetate]', 'IC50', 'µM', 0.185),
  ('CN(C)S(=O)(=O)Nc1ccc(F)c(Oc2ccc3ncn(C)c(=O)c3c2Cl)c1Cl [Example 110]', 'IC50', 'µM', 0.048),
  ('CO[C@H]1CN(S(=O)(=O)Nc2ccc(F)c(Nc3ccc4ncn(C)c(=O)c4c3Br)c2Cl)C[C@H]1F (relative stereo) [Example 16, trifluoroacetate]', 'IC50', 'µM', 0.043),
  ('Cn1cnc2ccc(Nc3c(F)c(F)cc(NS(=O)(=O)N4CC5CC4C5)c3Cl)c(F)c2c1=O [Example 41, trifluoroacetate]', 'IC50', 'µM', 0.042),
  ('CCN(C)S(=O)(=O)Nc1ccc(F)c(Oc2ccc3ncn(C)c(=O)c3c2Cl)c1Cl [Example 109]', 'IC50', 'µM', 0.272),
  ('Cn1cnc2ccc(Oc3c(F)ccc(NS(=O)(=O)N4CC5CC4C5)c3Cl)c(F)c2c1=O [Example 49]', 'IC50', 'µM', 0.07),
  ('Cn1cnc2ccc(Oc3c(F)ccc(NS(=O)(=O)N4CCCC4)c3Cl)c(Cl)c2c1=O [Example 39]', 'IC50', 'µM', 0.055),
  ('Cn1cnc2ccc(Nc3c(F)ccc(NS(=O)(=O)N4CCC(F)(F)C4)c3Cl)c(F)c2c1=O [Example 23]', 'IC50', 'µM', 0.029),
  ('CCC1CCN(S(=O)(=O)Nc2ccc(F)c(Nc3ccc4ncn(C)c(=O)c4c3Cl)c2Cl)C1 (centres unmarked) [Example 94, trifluoroacetate]', 'IC50', 'µM', 0.281),
  ('Cc1c(Nc2c(F)ccc(NS(=O)(=O)N3CCC(F)(F)C3)c2Cl)ccc2ncn(C)c(=O)c12 [Example 93]', 'IC50', 'µM', 0.195),
  ('CCN(C)S(=O)(=O)Nc1ccc(F)c(Nc2ccc3ncn(C)c(=O)c3c2Cl)c1Cl [Example 2]', 'IC50', 'µM', 0.058),
  ('Cn1cnc2ccc(Nc3c(F)c(F)cc(NS(=O)(=O)N4CC[C@@H](F)C4)c3F)c(Cl)c2c1=O [Example 36, trifluoroacetate]', 'IC50', 'µM', 0.061);

---

Target: full-length FLAG-tagged B-Raf(V600E) (Homo sapiens (Human), UniProt P15056, V600E)
Sequence (P15056 whole entry V600E): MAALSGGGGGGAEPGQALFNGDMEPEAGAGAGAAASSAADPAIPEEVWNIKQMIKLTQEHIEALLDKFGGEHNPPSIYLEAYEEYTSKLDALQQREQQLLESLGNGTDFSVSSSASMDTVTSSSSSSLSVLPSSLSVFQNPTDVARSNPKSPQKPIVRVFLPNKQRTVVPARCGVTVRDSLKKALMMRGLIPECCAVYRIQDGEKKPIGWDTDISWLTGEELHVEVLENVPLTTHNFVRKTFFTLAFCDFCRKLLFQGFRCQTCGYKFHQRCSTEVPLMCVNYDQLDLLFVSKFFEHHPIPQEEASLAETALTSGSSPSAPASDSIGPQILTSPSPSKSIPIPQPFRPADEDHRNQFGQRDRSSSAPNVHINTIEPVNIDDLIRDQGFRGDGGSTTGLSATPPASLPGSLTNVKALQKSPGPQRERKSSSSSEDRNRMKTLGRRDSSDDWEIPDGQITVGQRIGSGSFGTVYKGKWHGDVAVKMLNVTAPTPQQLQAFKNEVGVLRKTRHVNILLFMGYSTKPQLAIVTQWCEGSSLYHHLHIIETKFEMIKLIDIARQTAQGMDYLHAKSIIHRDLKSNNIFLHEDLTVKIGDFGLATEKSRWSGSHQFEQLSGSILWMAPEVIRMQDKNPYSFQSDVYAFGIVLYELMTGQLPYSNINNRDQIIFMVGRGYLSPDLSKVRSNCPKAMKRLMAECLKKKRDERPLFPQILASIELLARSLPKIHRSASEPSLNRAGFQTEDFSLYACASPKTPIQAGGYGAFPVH
Assay: BRAF V600E enzyme assay (TR-FRET competitive displacement)
Type: binding
Conditions: averaged IC50; TR-FRET tracer displacement, 60 min
pIC50: −log10 of the molar value. Counter-ions that a name gives are not always drawn.
Each entry below carries its reported pIC50.
PROPERTY MEASURED: pIC50

INSERT INTO assay_data (compound, property_measured, recorded_value) VALUES
  ('Cn1cnc2ccc(Nc3c(F)c(F)cc(NS(=O)(=O)N4CC[C@@H](F)C4)c3Cl)c(Cl)c2c1=O [Example 33, trifluoroacetate]', 'pIC50', 9.00),
  ('Cn1cnc2ccc(Nc3cc(Cl)cc(NS(=O)(=O)N4CC[C@@H](F)C4)c3F)c(Cl)c2c1=O [Example 56, trifluoroacetate]', 'pIC50', 9.00),
  ('Cc1c(Nc2c(F)ccc(NS(=O)(=O)N(C)C3CC3)c2Cl)ccc2ncn(C)c(=O)c12', 'pIC50', 6.63),
  ('Cc1c(Nc2c(F)c(F)cc(NS(=O)(=O)N3C[C@@H](F)[C@@H](F)C3)c2Cl)ccc2ncn(C)c(=O)c12', 'pIC50', 8.70),
  ('C=Cc1c(Nc2c(F)ccc(NS(=O)(=O)N3CCCC3)c2Cl)ccc2ncn(C)c(=O)c12 [Example 51, trifluoroacetate]', 'pIC50', 7.11),
  ('Cn1cnc2ccc(Nc3c(F)ccc(NS(=O)(=O)N4CC5CC5C4)c3Cl)c(F)c2c1=O (centres unmarked) [Example 30, trifluoroacetate]', 'pIC50', 8.70),
  ('Cc1c(Nc2c(F)ccc(NS(=O)(=O)N3CCC4CC43)c2Cl)ccc2ncn(C)c(=O)c12 (centres unmarked) [Example 153, trifluoroacetate]', 'pIC50', 7.15),
  ('Cn1cnc2ccc(Oc3c(F)ccc(NS(=O)(=O)N4CC[C@@H](F)C4)c3Cl)c(Cl)c2c1=O', 'pIC50', 8.70),
  ('COC1CN(S(=O)(=O)Nc2ccc(F)c(Nc3ccc4ncn(C)c(=O)c4c3C)c2Cl)C1 [Example 128, trifluoroacetate]', 'pIC50', 7.80),
  ('CC[C@@H]1CCN(S(=O)(=O)Nc2ccc(F)c(Nc3ccc4ncn(C)c(=O)c4c3F)c2Cl)C1 [Example 62, trifluoroacetate]', 'pIC50', 7.89),
  ('COCC1CN(S(=O)(=O)Nc2ccc(F)c(Nc3ccc4ncn(C)c(=O)c4c3C)c2Cl)C1', 'pIC50', 7.80),
  ('Cn1cnc2ccc(Nc3c(F)ccc(NS(=O)(=O)N4CC5CC4C5)c3Cl)c(F)c2c1=O', 'pIC50', 8.22),
  ('Cc1c(Nc2c(F)ccc(NS(=O)(=O)N3CCC4(CC4)C3)c2Cl)ccc2ncn(C)c(=O)c12 [Example 82, trifluoroacetate]', 'pIC50', 7.16),
  ('CO[C@@H]1CCN(S(=O)(=O)Nc2cc(Cl)cc(Nc3ccc4ncn(C)c(=O)c4c3C)c2F)C1', 'pIC50', 7.82);
